Values from ChEMBL document CHEMBL1151714

# target entity: Baculoviral IAP repeat-containing protein 3 (Homo sapiens, UniProt Q13489)
# Sequence (Q13489 whole entry): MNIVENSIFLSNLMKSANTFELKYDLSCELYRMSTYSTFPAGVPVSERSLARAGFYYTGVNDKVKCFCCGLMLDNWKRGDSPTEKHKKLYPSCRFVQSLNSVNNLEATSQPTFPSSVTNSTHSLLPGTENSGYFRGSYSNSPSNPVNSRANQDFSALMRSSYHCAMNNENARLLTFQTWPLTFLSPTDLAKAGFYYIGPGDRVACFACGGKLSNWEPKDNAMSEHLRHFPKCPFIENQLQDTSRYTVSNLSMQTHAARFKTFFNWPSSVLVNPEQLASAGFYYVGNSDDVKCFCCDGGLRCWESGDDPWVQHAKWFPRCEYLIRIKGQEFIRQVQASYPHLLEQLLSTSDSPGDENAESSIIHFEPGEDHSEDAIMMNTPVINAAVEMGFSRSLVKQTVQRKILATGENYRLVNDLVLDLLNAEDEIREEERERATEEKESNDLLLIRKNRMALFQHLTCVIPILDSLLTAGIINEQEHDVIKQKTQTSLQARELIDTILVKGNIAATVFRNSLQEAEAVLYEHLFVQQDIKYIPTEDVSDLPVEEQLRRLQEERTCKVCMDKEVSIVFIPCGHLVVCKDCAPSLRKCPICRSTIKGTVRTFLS
# protocol description: Displacement of fluorescently tagged SM5F from human cIAP-2 BIR3 expressed in Escherichia coli BL21 cells by fluorescence polarization assay
pKi: −log10 of the molar value.
parameter: pKi

{"given smiles": "CN[C@@H](C)C(=O)N[C@H]1CN(C)CC[C@H]2CC[C@@H](C(=O)NC(c3ccccc3)c3ccccc3)N2C1=O", "reported": 7.76}
{"given smiles": "CN[C@@H](C)C(=O)N[C@H]1CNCC[C@H]2CC[C@@H](C(=O)NC(c3ccccc3)c3ccccc3)N2C1=O", "reported": 8.34}
{"given smiles": "CN[C@@H](C)C(=O)N[C@H]1CN(Cc2ccccc2)CC[C@H]2CC[C@@H](C(=O)NC(c3ccccc3)c3ccccc3)N2C1=O", "reported": 8.01}
